From: paper PMC6522912

biological target: E. coli MurD (Escherichia coli); test: biochemical; settings: 0.25 h, Table S1, PKIS screening; read-out: RA [%] at 100 µM MurD
Examples of molecules with documented remaining activity at 100 µM follow.
Only the number, expressed in %, is required.

Example cases with answers are listed next.
{"Molecule": "COc1cc(Nc2nccc(-c3cnn4ncccc34)n2)cc(OC)c1 [GW801372X]", "Unit name": "%", "remaining activity at 100 µM": 88}
{"Molecule": "CN(C)CCNC(=O)Nc1ccc(N(C)c2ccnc(Nc3ccc(CS(C)(=O)=O)cc3)n2)cc1 [GW830900A]", "Unit name": "%", "remaining activity at 100 µM": 91}

Given COC(=O)Nc1nc2ccc(Oc3ccc(NC(=O)Nc4ccccc4)cc3)cc2[nH]1 [GW694590A] , respond with its remaining activity at 100 µM.
99

Recall and state the measured remaining activity at 100 µM for CC1=C(C(=O)Nc2ccc3[nH]ncc3c2)C(c2ccc3ccccc3c2)CC(=O)N1 (stereo not drawn) [GSK270822A] .
81

For the molecule CS(=O)(=O)CCN(CC#N)Cc1ccc(-c2ccc3ncnc(Nc4ccc(OCc5cccc(F)c5)c(Cl)c4)c3c2)o1 [GW616030X] , give its measured remaining activity at 100 µM value.
59

Please indicate remaining activity at 100 µM recorded for CS(=O)(=O)Nc1ccc(-c2ccc3c(NC(=O)C4CC4)n[nH]c3c2)cc1 [SB-742865]
80

---

molecular target: E. coli MurC (Escherichia coli); assay: Malachite green inhibition assay, MurC; type: biochemical; settings: 0.25 h, Table S1, PKIS screening; read-out: RA [%] at 100 µM MurC
Recorded measurements of remaining activity at 100 µM, one per entry
Record the value in %, omitting the unit from your answer.

{"Compound": "CNC(=O)c1cc(-c2ccc(F)cc2)cc(-c2ccc(S(=O)(=O)N3CCCC3)cc2)c1N [GSK635416A]", "Unit name": "%", "Reported value": 71}
{"Compound": "CS(=O)(=O)CCNCc1ccc(-c2ccc3ncnc(Nc4ccc(OCc5ccccc5)cc4)c3c2)o1 [GW458787A]", "Unit name": "%", "Reported value": 68}

Assign remaining activity at 100 µM to the following record: Cc1cc(O)cc(C)c1/C=C/c1cncc(-c2nn[nH]n2)c1 [GW441806A]
70

---

Target: E. coli MurD (Escherichia coli, UniProt P14900)
Sequence (P14900 whole entry): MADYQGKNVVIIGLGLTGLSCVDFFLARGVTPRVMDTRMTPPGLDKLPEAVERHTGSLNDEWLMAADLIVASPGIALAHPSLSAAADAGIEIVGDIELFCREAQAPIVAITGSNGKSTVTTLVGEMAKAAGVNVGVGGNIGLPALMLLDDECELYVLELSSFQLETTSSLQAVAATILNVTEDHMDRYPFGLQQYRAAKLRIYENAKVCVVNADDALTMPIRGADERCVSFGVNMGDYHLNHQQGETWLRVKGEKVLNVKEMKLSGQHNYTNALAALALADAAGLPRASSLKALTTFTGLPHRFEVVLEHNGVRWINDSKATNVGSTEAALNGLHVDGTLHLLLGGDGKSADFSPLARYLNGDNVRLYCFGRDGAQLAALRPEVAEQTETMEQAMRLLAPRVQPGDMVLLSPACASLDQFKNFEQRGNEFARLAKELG
Assay: biochemical
Settings: 0.25 h, Table S1, PKIS screening; read-out: RA [%] at 100 µM MurD
Protocol: Inhibition of the Mur ligases was determined using the malachite green assay, with slight modifications. In all cases, the final concentration of DMSO was 5% (v/v). After incubation for 15 min at 37 °C, the enzyme reaction was terminated by addition of 100 µM Biomol green reagent, and the absorbance was measured at 650 nm after 5 min. […] Residual activities were calculated with respect to control assays without the tested compounds, but with the 5% DMSO carrier. […]
Property measured: remaining activity at 100 µM (%)
Provide only the numeric value, understood in %.

Known remaining activity at 100 µM results, listed for orientation:
{"Compound": "O=C1NC(=O)C(c2cccc(Cl)c2)=C1Nc1ccc(Cl)c(C(=O)O)c1", "Reported value": 88}
{"Compound": "CN1CCC(n2cnc(-c3ccc(F)cc3)c2-c2ccnc(Nc3ccccc3)n2)CC1", "Reported value": 90}
{"Compound": "Nc1nc(-c2ccccn2)c(-c2ccc3ncccc3n2)s1 [GW693481X]", "Reported value": 88}
{"Compound": "COc1c(C(N)=O)cc(-c2ccc(Cl)cc2)cc1-c1ccc(S(N)(=O)=O)cc1 [GSK711701A]", "Reported value": 99}
{"Compound": "CCS(=O)(=O)c1ccc(OC)c(Nc2ncc(-c3cccc(C(C)=O)c3)o2)c1 [GW621431X]", "Reported value": 93}

Please give measured remaining activity at 100 µM of the following entry: COc1cccc(COc2cc(-n3cnc4ccccc43)sc2C(N)=O)c1 [GW804482X]
79

Please report the measured remaining activity at 100 µM for COc1cccc(-n2ncc3c(N/N=C/c4ccc(S(C)(=O)=O)cc4)ncnc32)c1 [GW811168X]
87

Provide measured remaining activity at 100 µM value, entry: Nc1nonc1-c1nc2cnccc2n1C1CCCCC1
79

Quote remaining activity at 100 µM reported for c1ccc(-c2n[nH]cc2-c2ccnc(-c3ccc(OCCn4ccnc4)cc3)c2)nc1 [GW711782X] please.
74

Fill in reported remaining activity at 100 µM for this entry: Fc1ccc(-c2ncn(C3CCNCC3)c2-c2ccnc(Oc3ccccc3)n2)cc1
67

Please list remaining activity at 100 µM recorded for the compound COc1cccc(-n2ncc3c(N/N=C/c4ccc(F)cc4)ncnc32)c1 [GW817396X]
95

Supply remaining activity at 100 µM value. Item: CN1CCN(C(=O)c2ccc(NC(=O)Nc3ccc(N(C)c4ccnc(Nc5ccc(CS(C)(=O)=O)cc5)n4)cc3)cc2)CC1 [GW830263A]
69

Return remaining activity at 100 µM for the following compound: COC(=O)Nc1nc2ccc(Oc3ccc(NC(=O)Nc4cccc(Cl)c4)cc3)cc2[nH]1 [GW589961A]
81

Determine from records and report remaining activity at 100 µM for COc1ccc2c(-c3ccnc(Nc4cccc(OC(F)(F)F)c4)n3)cnn2n1 [GW810372X]
70

Please supply the value of reported remaining activity at 100 µM for the item O=C1NC(=O)C(N2CCc3ccccc32)=C1c1ccc(Cl)cc1
96

Name the recorded remaining activity at 100 µM of the compound listed here: Cc1cc(O)cc(C)c1/C=C/c1cncc(-c2nn[nH]n2)c1 [GW441806A]
91

---

Biological target: E. coli MurD (Escherichia coli, UniProt P14900)
Assay: biochemical
Details: 0.25 h, Table S1, PKIS screening; read-out: RA [%] at 100 µM MurD
Experimental: Inhibition of the Mur ligases was determined using the malachite green assay, with slight modifications. In all cases, the final concentration of DMSO was 5% (v/v). After incubation for 15 min at 37 °C, the enzyme reaction was terminated by addition of 100 µM Biomol green reagent, and the absorbance was measured at 650 nm after 5 min. […] Residual activities were calculated with respect to control assays without the tested compounds, but with the 5% DMSO carrier. […]
Listed next: entries and their corresponding remaining activity at 100 µM.
Give your result in % as a bare value.

{"Molecule": "CCCN1CCCC(c2ccc(Nc3nc(Nc4cc(F)ccc4C(N)=O)c4cc[nH]c4n3)c(OC)c2)C1 (stereo not drawn)", "remaining activity at 100 µM / %": 10}
{"Molecule": "CN1CCC(C(=O)Nc2n[nH]c3nc(-c4ccc(O)cc4)c(Br)cc23)CC1", "remaining activity at 100 µM / %": 84}
{"Molecule": "COc1cccc(-n2ncc3c(N/N=C/c4cccc(F)c4)ncnc32)c1 [GW817394X]", "remaining activity at 100 µM / %": 81}
{"Molecule": "c1ccc(COc2ccc(Nc3ncnc4ccc(-c5ccco5)cc34)cc2)cc1 [GW284372X]", "remaining activity at 100 µM / %": 80}
{"Molecule": "CC1=C(C(=O)Nc2ccc3[nH]nc(C)c3c2)C(c2ccc(C(F)(F)F)cc2)CC(=O)N1 (stereo not drawn) [GSK466314A]", "remaining activity at 100 µM / %": 100}

As a next step, examine the molecule that follows.
Give the value of remaining activity at 100 µM reported for the following: NS(=O)(=O)c1ccc(NN=C2C(=O)Nc3cccc(CCc4ccncc4)c32)cc1 [GW352430A]
90

---

biological target: E. coli MurC (Escherichia coli, UniProt P17952); experiment: Malachite green inhibition assay, MurC; type: biochemical; conditions: 0.25 h, Table S1, PKIS screening; read-out: RA [%] at 100 µM MurC
Sequence (P17952 whole entry): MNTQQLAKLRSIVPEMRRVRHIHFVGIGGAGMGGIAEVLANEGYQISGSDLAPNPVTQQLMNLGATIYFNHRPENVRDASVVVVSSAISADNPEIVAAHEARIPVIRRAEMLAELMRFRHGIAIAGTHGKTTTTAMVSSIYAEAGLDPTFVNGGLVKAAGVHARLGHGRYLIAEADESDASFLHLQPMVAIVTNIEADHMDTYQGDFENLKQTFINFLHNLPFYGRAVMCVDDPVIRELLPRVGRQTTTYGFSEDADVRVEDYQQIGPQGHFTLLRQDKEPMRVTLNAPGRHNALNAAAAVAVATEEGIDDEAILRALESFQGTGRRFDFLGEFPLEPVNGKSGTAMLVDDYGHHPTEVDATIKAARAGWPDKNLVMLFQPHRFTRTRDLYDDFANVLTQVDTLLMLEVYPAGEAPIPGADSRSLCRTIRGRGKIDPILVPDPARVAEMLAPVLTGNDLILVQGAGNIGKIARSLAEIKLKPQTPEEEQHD
Heads up, the class ranges for remaining activity at 100 µM are range A: < 60%; range B: ≥ 60% and < 80%; range C: ≥ 80%

Which class holds Nc1nc(-c2ccc3c(c2)C(=Cc2cc(Br)c(O)c(Br)c2)C(=O)N3)cs1 [GW407323A] ?
range B

Bin? Fc1ccc(-c2ncn(C3CCNCC3)c2-c2ccnc(Oc3ccc(Oc4ccccc4)cc3)n2)cc1
range A

# bin lookup: classify N#Cc1ccc2c(-c3ccnc(NC4CC4)n3)c(-c3ccc(F)cc3)nn2c1 [GW561436X] by its remaining activity at 100 µM
range C

Exam item: assign COc1cccc(-n2ncc3c(N/N=C/c4ccc(S(C)(=O)=O)cc4)ncnc32)c1 [GW811168X] to the correct category.
range A

Band assignment needed for C[C@@H](Oc1cc(-n2cnc3ccc(OC4CCN(C)CC4)cc32)sc1C(N)=O)c1ccccc1Cl [GSK579289A] please.
range B

Classify this compound: COc1cccc(-n2ncc3c(N/N=C/c4ccc(C)cc4)ncnc32)c1 [GW829877X]
range B

Please let me know in which category the item COc1ccc2ncn(-c3cc(O[C@H](C)c4ccccc4C(F)(F)F)c(C(N)=O)s3)c2c1 [GSK317315A] belongs.
range A

Form: Item = OCCCNc1nccc(-c2c(-c3ccc(F)cc3)nn3cc(C(F)(F)F)ccc23)n1 [GW569293E] ; Class = ?
range A
